- Test system: T-47D breast
- EXPERIMENT: NCI tumour cell line growth inhibition, 48 h
Hi, to clarify the labels: true covers TGI from 6 µM upward, false covers anything below 6 µM.

COMPOUND | DISCRETE LABEL
O=C(O)/C=C\C(=O)Nc1ccccn1 | true
CCN(Cc1cc(F)ccc1F)c1ccc(CO)c(Cl)c1 | false
CCN1CCN(Cc2ccc(NC(=O)Nc3nc4ccc(Oc5ccnc(C(=O)NC)c5)cc4s3)cc2C(F)(F)F)CC1 | false
c1cc(-c2nnc(SSc3ncnc4nc[nH]c34)o2)ccn1 | true
CCOc1ccc2c(c1)C(=O)c1c-2n(CCCBr)c(=O)c2cc([N+](=O)[O-])ccc12 | true
O=C1CC(C(CC(=O)c2ccccc2)c2ccccc2)C(=O)c2ccccc2N1 (stereo not given) | true
O=S(=O)(c1ccc(-c2nnc(-c3ccc(F)cc3)o2)cc1)c1ccc(-c2nnc(-c3ccc(F)cc3)o2)cc1 | true
Cc1cccc2nc3c(=O)[nH]c(=O)nc-3n(C)c12 | true
CN(C)CCNC(=O)c1ccc(-c2nc3ccc4[nH]ncc4c3c3c2C2CCC3C2)cc1 (stereo not given) | true
C=C1[C@@](C)([C@@H]2CCCS2)[C@H]2C(C)=C[C@]1(C)n1c(=O)n(-c3ccccc3)c(=O)n12 | true

Task item: Say whether CCOC(=O)C(NC(=O)CC)(Nc1ccc(S(=O)(=O)Nc2onc(C)c2C)cc1)C(F)(F)F (stereo not given) shows TGI of 6 µM or more.
Reply: true

Task item: Say whether Oc1ccccc1C1C=C(c2ccccc2)NC(N2CCCCC2)=C1c1nc2ccccc2[nH]1 (stereo not given) shows TGI of 6 µM or more.
Reply: true

Task item: Say whether COC(=O)c1c(CC(Cc2ccc3c(c2)CCCC3)C(=O)OC)ccc2c1CCCC2 (stereo not given) shows TGI of 6 µM or more.
Reply: true

Task item: Say whether `NS(=O)(=O)c1ccc(N=Nc2c(O)[nH]c3ccc(C(=O)NCc4ccncc4)cc23)cc1` shows TGI of 6 µM or more.
Reply: true

Task item: Say whether CC(=O)OC1C2CCC3C(C)(O)C4CC(O)C(C)(C)C4(O)C(O)CC13CC2(C)O (stereo not given) shows TGI of 6 µM or more.
Reply: true

Task item: Say whether C=C(C)C1CC/C(C)=C/CC[C@]2(C)O[C@@H]2CCC2=CC1OC2=O (stereo not given in full) shows TGI of 6 µM or more.
Reply: true

Task item: Say whether CN1N=C(c2ccncc2)OC1c1cccc(C(F)(F)F)c1 (stereo not given) shows TGI of 6 µM or more.
Reply: true

Task item: Say whether `O=S1(=O)N(Cc2ccccc2)[C@@H](Cc2ccccc2)[C@H](O)[C@H](O)[C@H](Cc2ccccc2)N1Cc1ccccc1` shows TGI of 6 µM or more.
Reply: true

----------
- Test system: MOLT-4 leukemia
- EXPERIMENT: NCI tumour cell line growth inhibition, 48 h
Please provide measured GI50 for the entries that follow.

Completed entries (count: 2):
COMPOUND | EXPERIMENTAL SYSTEM | GI50
COc1cccc(CN(C)c2ccc(CO)c(Cl)c2)c1 | MOLT-4 leukemia | 33100 nM
CC1=C2C(=CC(C)(C)[C@@H]2O)C(=O)[C@](C)(O)C12CC2 | MOLT-4 leukemia | 13.7 nM

Okay, here is my list. What is GI50 for each of these?
1. COc1ccc(C(=O)c2cc3c(N)c(C(=O)Nc4ccccc4)sc3nc2C)cc1
2. C#CCNC(=S)N/N=C(\C)c1ccccn1
3. CN(Cc1ccc(C(F)(F)F)cc1)CC(O)C(=O)Nc1ccc(Cl)cc1 (stereo not drawn)
4. C1=C/COCc2cc(ccc2OCCN2CCCC2)Nc2nccc(n2)-c2ccc(o2)COC/1

Reply:
["796 nM", "126 nM", "1420 nM", "1630 nM"]

Okay, here is my list. What is GI50 for each of these?
1. COc1ccc(NC(=O)/C=C(C)/C=C/C=C(C)/C=C/C2=C(C)CCCC2(C)C)cc1
2. COc1ccc2c(c1OC)-c1c(c3ccc([N+](=O)[O-])cc3c(=O)n1CCCBr)C2=O

Reply:
2340 nM
18900 nM

----------
Please provide measured TGI for the entries that follow.
- Test system: HOP-62 NSCLC
- EXPERIMENT: NCI tumour cell line growth inhibition, 48 h

Completed entries (count: 3):
MOLECULE | TGI
CCc1cccc(C)c1N1C(=O)C(=O)C(c2nc3ccccc3o2)C(=O)C1=O | > 100 µM
CC12CCCCC1=[N+]([O-])C(C)(C)N2O (centres undefined) | > 100 µM
Cc1cc(C)nc(/C(=N\NC(N)=O)C(=O)Nc2nc3ccc(C)cc3s2)c1 | > 100 µM

Would you kindly look at the next entry?
Task item: Provide only the value of recorded TGI for `CCCCCCCCCC(=O)N[C@@H](c1ccco1)[C@@H](O)C(=O)O[C@H]1C[C@@]2(O)[C@@H](OC(=O)c3ccccc3)[C@@H]3[C@]4(OC(C)=O)CO[C@@H]4C[C@H](O)[C@@]3(C)C(=O)[C@H](OC(C)=O)C(=C1C)C2(C)C`
Reply: 1.68 µM

----------
Please provide measured TGI for the entries that follow.
- Tested on: U251 CNS
- EXPERIMENT: NCI tumour cell line growth inhibition, 48 h

Completed entries (count: 4):
COMPOUND | OUTCOME MEASURE | VALUE MEASURED
Cc1cn(C2CC(CCCO)C(CO)O2)c(=O)[nH]c1=O (stereo not given) | TGI | > 100 µM
CCOC(=O)C(C)Sc1nnc(COc2ccccc2OC)n1-c1ccccc1 (stereo not given) | TGI | > 100 µM
COC(=O)CC(C(C(=O)OCc1ccccc1)C(C)O)N1C(=O)OC(c2ccccc2)C1c1ccccc1 (stereo not given) | TGI | > 100 µM
COC(=O)C(=O)C(C(=O)C(=O)Nc1cccc([N+](=O)[O-])c1)c1nc2ccc(Cl)cc2[nH]c1=O (stereo not given) | TGI | > 100 µM

Okay, here is my list. What is TGI for each of these?
1. CCOC(=O)CN(Cn1cncn1)Cn1cncn1
2. Cc1cc(Cl)ccc1OCC(=O)Nc1nc(N)nc(N)n1
3. CC(C)(O)C1CC[C@]2(C)[C@H]3CC[C@@H]4[C@@]5(C)CCCC(C)(C)[C@@H]5CC[C@@]4(C)[C@]3(C)CC[C@@H]12 (stereo not given in full)
4. N#C/C(=C\c1cccc(O)c1O)C(N)=O

Reply:
["33.7 µM", "> 100 µM", "> 100 µM", "> 100 µM"]

Okay, here is my list. What is TGI for each of these?
1. O=C(Nc1ccc(F)cc1F)c1cc(Cl)ccc1O
2. C#CCNC(=O)ON1C(=O)CCC1=O

Reply:
1. 16 µM
2. > 100 µM

----------
- Test system: NCI-H460 lung
Pick one and only one: 1 for active, -1 for inactive

// below: answered molecules
MOLECULE | DISCRETE LABEL
NC(=O)[C@@H](CC1CC1)[C@@H](CCC(F)(F)F)C(=O)N[C@H]1N=C(c2ccccc2)c2cccc(F)c2NC1=O | -1
Cc1ccc2nc(-c3ccc(OCC(=O)N=Nc4c(O)[nH]c5ccccc45)cc3)[nH]c2c1 | -1
Cc1ncc(C(=O)Nc2ccc(CN3CCN(C)CC3)c(C(F)(F)F)c2)cc1C#Cc1ccc(N)nc1 | 1
[O-]c1ccccc1C=Nc1ccc2c(c1)CCC2.[O-]c1ccccc1C=Nc1ccc2c(c1)CCC2.[O]=[U+2]=[O] | -1
Cc1cc(C)c2c(n1)sc1c(N)ncnc12 | -1
CN(Cc1ccc(C(F)(F)F)cc1)CC(O)C(=O)Nc1ccc(Cl)cc1 (stereo not drawn) | -1
NCCCCC1NC(=O)C(CC(=O)O)NC(=O)CNC(=O)C(CCCN=C(N)N)NC(=O)C(N)CSSCC(C(=O)O)NC(=O)C(CC(=O)O)NC(=O)C2CCCN2C(=O)CNC1=O (stereo not drawn) | -1

Task item: Which outcome was entered for the molecule `CNNC(=N\S(=O)(=O)c1cc(C)c(Cl)cc1SCc1ccccc1)/N=C/c1ccc([N+](=O)[O-])s1` in this test?
Reply: -1

----------
- System: OVCAR-4 ovarian
- EXPERIMENT: NCI tumour cell line growth inhibition, 48 h
OUTCOME MEASURE: GI50

INPUT SMILES | GI50
COc1ccc(/C=C/C(=O)c2ccc(-n3cc(CN4CCN(c5cc6c(cc5F)c(=O)c(C(=O)O)cn6C5CC5)CC4)nn3)cc2)cc1OC | 3.94 µM

Okay, here is my list. What is GI50 for each of these?
1. CNNC(=N\S(=O)(=O)c1cc(C)c(Cl)cc1SCc1ccccc1)/N=C/c1ccc([N+](=O)[O-])s1
2. Cc1cc(C)c2c(n1)sc1c(N)ncnc12

Reply:
> 100 µM
> 25 µM

Hello, the source for this data is PubChem BioAssay (NCI), in case you need it.
